Subject of test: Tyrosine-protein phosphatase non-receptor type 11 (Homo sapiens) (UniProt Q06124)
Sequence (Q06124 whole entry): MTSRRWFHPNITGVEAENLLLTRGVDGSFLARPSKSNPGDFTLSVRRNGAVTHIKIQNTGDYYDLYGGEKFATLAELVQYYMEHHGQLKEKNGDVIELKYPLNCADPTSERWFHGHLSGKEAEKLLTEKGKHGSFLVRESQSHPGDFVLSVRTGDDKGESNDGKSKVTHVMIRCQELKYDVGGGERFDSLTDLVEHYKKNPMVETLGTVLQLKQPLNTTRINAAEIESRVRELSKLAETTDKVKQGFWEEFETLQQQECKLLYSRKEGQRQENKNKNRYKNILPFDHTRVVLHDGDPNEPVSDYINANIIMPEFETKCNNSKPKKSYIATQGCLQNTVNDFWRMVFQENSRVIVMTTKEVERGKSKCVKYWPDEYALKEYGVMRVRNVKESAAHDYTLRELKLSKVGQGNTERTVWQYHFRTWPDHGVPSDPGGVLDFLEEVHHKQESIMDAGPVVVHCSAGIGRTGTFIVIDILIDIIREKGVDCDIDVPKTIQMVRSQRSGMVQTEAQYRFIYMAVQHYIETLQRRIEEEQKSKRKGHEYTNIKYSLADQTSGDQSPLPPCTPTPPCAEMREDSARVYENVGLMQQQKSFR
Condition notes: filed as negative allosteric modulator
Description: Allosteric inhibition of recombinant human SHP2 assessed as change in melting temperature by SYPRO orange dye based thermal shift assay
Endpoint name: ΔTm (°C)
Answers are plain numbers, in °C.

Examples with answers:
{"Record smiles": "CC1(N)CCN(c2cnc(SC3CCCCC3)c(N)n2)CC1", "Subject of test": "Tyrosine-protein phosphatase non-receptor type 11 (Homo sapiens) (UniProt Q06124)", "Quantity unit": "°C", "Test value": 0.88}
{"Record smiles": "CC1(N)CCN(c2cnc(Sc3ccccc3C(F)(F)F)c(N)n2)CC1", "Subject of test": "Tyrosine-protein phosphatase non-receptor type 11 (Homo sapiens) (UniProt Q06124)", "Quantity unit": "°C", "Test value": 3.45}

Please report ΔTm for every entry that follows.
1. Cc1ccc(-c2ncc(N3CCC(C)(N)CC3)nc2N)cc1
2. CC1(N)CCN(c2cnc(Sc3ccccc3)c(N)n2)CC1
3. CC1(N)CCN(c2cnc(-c3cccc(Cl)c3Cl)c(N)n2)CC1
4. COc1ccccc1Sc1ncc(N2CCC(C)(N)CC2)nc1N

1: 0.42; 2: 1.72; 3: 4.37; 4: 3.79

Look at each molecule and report its ΔTm.
1. CC1(N)CCN(c2cnc(Sc3cccc(Cl)c3Cl)c(N)n2)CC1
2. CNC1CCN(c2cnc(-c3cccc(Cl)c3Cl)c(N)n2)CC1
3. CC1(N)CCN(c2cnc(Sc3ccc(Cl)cc3)c(N)n2)CC1

1. 6.24
2. 3.06
3. 0.43

Hi! Can you tell me ΔTm for each of these molecules?
1. CC1(N)CCN(c2cnc(Sc3cccc4ccccc34)c(N)n2)CC1
2. NCCC1CCN(c2cnc(-c3cccc(Cl)c3Cl)c(N)n2)CC1
3. CC1(O)CCN(c2cnc(-c3cccc(Cl)c3Cl)c(N)n2)CC1

[3.6, 2.31, 0.435]
